- testedTarget: Signal transducer and activator of transcription 5A (Homo sapiens, UniProt P42229)
- Sequence (P42229 whole entry): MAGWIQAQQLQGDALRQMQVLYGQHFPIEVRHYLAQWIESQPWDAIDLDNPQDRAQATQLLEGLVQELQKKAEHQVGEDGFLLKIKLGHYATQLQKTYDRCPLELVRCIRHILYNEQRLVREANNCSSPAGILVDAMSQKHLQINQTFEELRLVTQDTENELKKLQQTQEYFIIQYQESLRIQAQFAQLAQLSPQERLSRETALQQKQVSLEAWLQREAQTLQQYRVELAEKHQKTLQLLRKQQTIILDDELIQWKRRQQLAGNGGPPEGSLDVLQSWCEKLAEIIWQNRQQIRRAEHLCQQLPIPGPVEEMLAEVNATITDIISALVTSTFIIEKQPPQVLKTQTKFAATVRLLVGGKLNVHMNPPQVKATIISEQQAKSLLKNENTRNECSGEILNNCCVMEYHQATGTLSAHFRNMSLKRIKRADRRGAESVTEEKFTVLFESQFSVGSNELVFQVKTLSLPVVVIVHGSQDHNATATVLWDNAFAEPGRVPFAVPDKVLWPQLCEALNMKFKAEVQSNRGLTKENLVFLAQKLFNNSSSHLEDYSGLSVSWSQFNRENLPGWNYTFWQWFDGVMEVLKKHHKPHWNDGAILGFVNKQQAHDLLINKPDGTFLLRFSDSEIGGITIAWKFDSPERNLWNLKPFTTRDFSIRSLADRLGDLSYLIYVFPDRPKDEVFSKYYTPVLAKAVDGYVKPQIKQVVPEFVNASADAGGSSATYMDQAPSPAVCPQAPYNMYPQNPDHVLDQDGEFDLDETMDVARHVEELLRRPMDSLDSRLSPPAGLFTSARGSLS
pKd: −log10 of the molar value.
parameter: pKd

compoundStructure: CN(CC(=O)N(Cc1ccc(C2CCCCC2)cc1)c1ccc(C(=O)O)cc1)S(=O)(=O)c1c(F)c(F)c(F)c(F)c1F
valueMeasured: 6.33
